# Test system: SF-268 CNS
# MEASUREMENT NOTES: NCI-60 one-dose screen, 48 h
# CONDITIONS: 10 µM unless noted
This is part of a sample that, as a whole, favours compounds with a hit. Of some 83,000 tested, about 20% had one in any assay. Active and inactive are the calls of the source. The calls were made as follows: active = growth percent below 10; inactive = the rest.
Result category, one only: TRUE for active, FALSE for inactive

# COMPOUND, ASSIGNED CATEGORY
measured = [
    ("N[C@@H](CC/[N+]([O-])=N/O)C(=O)O", "FALSE"),
]

Short answer needed: outcome of this test for `O=c1oc2ccc(I)cc2c(=O)n1-c1ccc(Cl)cc1F` ?
FALSE

Tell me the assay call for `C#CCn1cc(C=C2C(=O)NC(=O)NC2=O)c2cc(Cl)ccc21` please.
FALSE

Dear all, I need the recorded test outcome for `CC1=C(CC(=O)c2cccc([N+](=O)[O-])c2)C(=O)c2ccccc2C1=O` , thank you.
TRUE

Call for entry `COc1ccc(-c2cn[nH]c2-c2ccc(OC)c(O)c2)cc1` :
FALSE

Look up the recorded call for `Cc1cccc2c(=O)c3c(sc12)c(N1CCNCC1)nc1ccccc13` in this test.
FALSE

Called result for `O=C(Nc1ccc(Br)cc1F)c1cc(I)ccc1O`
FALSE

Outcome logged for CCCN1C(=O)N(CCC)C2C1NN=c1s/c(=C3\C(=O)N(C(C)C)c4ccccc43)c(=O)n12 (centres undefined) in this assay:
FALSE

Hi, do you know how `COC(=O)[C@H]1CCCN1C(=O)[C@H]1CCCN1C(=O)[C@H](Cc1c[nH]c2ccccc12)NC(=S)Nc1cc(C(F)(F)F)cc(C(F)(F)F)c1` came out in this test?
FALSE
